Listed molecules paired with reported IC50
- targetSystem: UniProtKB P00533
- procedureText: Biochemical EGFR kinase inhibition assay (Lance Ultra TR-FRET), wildtype
- assaySetup: IC50 WT (nM), 100 μM ATP
resultType: IC50 (nM)

>>> value("CN(C)Cc1ccc(C#Cc2cnc(Nc3ccnc(-c4cnn(S(=O)(=O)C5CC5)c4)n3)cc2N2CCC(C)(CO)CC2)cn1")
108
>>> value("CN(C)Cc1cccc(C#Cc2cnc(Nc3ccnc(-c4cnn(S(=O)(=O)C5CC5)c4)n3)cc2N2CCC(C)(CO)CC2)c1")
376
>>> value("CC1(CO)CCN(c2cc(Nc3ccnc(-c4cnn(S(=O)(=O)C5CC5)c4)n3)ncc2C#Cc2cccnc2)CC1")
832

----------
- targetSystem: EGFR Del19/C797S (Homo sapiens, UniProt P00533, C797S/DEL746-750)
- Sequence (P00533 with tags, fused parts or gaps DEL746-750/C797S): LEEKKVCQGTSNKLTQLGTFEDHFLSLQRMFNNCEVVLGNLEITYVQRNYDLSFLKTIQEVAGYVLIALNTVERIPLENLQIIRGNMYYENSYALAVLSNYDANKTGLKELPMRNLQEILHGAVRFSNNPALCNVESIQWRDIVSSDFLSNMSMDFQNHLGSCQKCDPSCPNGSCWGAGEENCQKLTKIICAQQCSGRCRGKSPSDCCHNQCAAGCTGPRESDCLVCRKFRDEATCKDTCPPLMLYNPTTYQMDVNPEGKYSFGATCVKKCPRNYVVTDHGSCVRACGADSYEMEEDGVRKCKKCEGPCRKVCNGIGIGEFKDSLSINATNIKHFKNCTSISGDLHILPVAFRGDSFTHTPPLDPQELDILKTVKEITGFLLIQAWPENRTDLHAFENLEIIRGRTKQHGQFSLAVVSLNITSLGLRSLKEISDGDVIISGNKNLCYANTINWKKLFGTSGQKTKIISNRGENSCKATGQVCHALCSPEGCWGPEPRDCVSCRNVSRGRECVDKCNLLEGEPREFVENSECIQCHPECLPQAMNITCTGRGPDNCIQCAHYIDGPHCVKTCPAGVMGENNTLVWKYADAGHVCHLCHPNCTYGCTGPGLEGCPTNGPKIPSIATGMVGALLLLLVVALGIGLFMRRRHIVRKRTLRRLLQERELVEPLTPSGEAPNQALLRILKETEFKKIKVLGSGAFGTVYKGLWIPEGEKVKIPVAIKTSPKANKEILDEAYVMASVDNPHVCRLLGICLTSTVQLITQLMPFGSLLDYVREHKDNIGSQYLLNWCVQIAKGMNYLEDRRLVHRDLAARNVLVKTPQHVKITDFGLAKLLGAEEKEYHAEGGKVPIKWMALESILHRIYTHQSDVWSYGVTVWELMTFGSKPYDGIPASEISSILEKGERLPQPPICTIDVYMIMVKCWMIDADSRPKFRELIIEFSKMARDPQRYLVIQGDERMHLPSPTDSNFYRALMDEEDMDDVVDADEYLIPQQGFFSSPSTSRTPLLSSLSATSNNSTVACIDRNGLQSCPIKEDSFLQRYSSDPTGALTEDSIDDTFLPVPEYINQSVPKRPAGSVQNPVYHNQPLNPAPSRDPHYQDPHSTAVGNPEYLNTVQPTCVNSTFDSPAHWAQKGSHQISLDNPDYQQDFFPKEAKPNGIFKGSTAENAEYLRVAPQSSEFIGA
- procedureText: Biochemical EGFR kinase inhibition assay (Lance Ultra TR-FRET), double mutant del19/C797S
- assaySetup: Km ATP; read-out: IC50 Del19/C797S (nM) Km ATP
Just a reminder that ties go to 0 (no): only IC50 strictly below 10 nM counts as 1 (yes).

>>> answerlabel("O=S(=O)(C1CC1)n1cc(-c2nccc(Nc3cc(N4CCCC(O)C4)c(C#Cc4cnn(C5CCOCC5)c4)cn3)n2)cn1 (centres unmarked)")
"0 (no)"
>>> answerlabel("CN(C)Cc1ccc(CNc2cc(Nc3ccnc(-c4cnn(S(=O)(=O)C5CC5)c4)n3)ncc2C#Cc2cnn(CCF)c2)cc1")
"0 (no)"
>>> answerlabel("CN(C)CCNC1CCN(c2cc(Nc3ccnc(-c4cnn(S(=O)(=O)C5CC5)c4)n3)ncc2C#Cc2cnn(C3CCOCC3)c2)CC1")
"1 (yes)"
>>> answerlabel("COC1CCN(c2cc(Nc3ccnc(-c4cnn(S(=O)(=O)C5CC5)c4)n3)ncc2C#Cc2cnn(C3CCOCC3)c2)CC1")
"0 (no)"
>>> answerlabel("CC(O)C1CCN(c2cc(Nc3ccnc(-c4cnn(S(=O)(=O)C5CC5)c4)n3)ncc2C#Cc2cnn(C)c2)CC1 (centres unmarked)")
"1 (yes)"

----------
- targetSystem: EGFR L858R/C797S (Homo sapiens, UniProt P00533, C797S/L858R)
- Sequence (P00533 25-1210 C797S/L858R): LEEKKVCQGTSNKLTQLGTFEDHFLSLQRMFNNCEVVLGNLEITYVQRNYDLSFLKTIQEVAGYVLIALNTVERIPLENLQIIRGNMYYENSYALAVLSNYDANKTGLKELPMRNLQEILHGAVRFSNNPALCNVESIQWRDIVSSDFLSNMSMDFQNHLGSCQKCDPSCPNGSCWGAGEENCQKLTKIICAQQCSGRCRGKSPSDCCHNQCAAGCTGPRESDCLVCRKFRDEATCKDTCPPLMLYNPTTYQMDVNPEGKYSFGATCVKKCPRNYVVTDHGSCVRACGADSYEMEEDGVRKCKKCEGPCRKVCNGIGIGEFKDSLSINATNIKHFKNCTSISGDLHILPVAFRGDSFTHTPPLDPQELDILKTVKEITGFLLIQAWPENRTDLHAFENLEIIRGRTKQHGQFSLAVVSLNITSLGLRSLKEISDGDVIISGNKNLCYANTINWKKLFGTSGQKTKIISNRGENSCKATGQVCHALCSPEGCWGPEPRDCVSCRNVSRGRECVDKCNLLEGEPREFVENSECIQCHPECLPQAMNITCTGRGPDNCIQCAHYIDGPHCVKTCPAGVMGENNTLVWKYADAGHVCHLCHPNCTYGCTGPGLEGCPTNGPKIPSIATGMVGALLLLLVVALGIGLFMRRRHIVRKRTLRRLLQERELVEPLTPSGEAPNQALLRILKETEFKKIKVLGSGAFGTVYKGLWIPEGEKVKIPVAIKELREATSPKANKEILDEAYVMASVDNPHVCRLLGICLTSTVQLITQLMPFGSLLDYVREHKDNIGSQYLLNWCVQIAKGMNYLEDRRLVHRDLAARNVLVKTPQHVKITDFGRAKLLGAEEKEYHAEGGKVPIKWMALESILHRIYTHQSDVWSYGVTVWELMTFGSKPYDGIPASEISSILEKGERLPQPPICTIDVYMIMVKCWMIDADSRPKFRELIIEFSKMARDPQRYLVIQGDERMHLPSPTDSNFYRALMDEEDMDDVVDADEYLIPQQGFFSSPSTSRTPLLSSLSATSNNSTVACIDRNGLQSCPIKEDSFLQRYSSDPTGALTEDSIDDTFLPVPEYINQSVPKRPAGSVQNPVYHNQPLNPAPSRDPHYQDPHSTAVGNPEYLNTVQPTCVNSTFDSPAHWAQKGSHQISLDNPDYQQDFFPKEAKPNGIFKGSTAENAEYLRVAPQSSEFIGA
- procedureText: Biochemical EGFR kinase inhibition assay (Lance Ultra TR-FRET), double mutant L858R/C797S
- assaySetup: IC50 L858R/C797S (nM), 100 μM ATP
- Description: Biochemical EGFR kinase assays were conducted using Lance Ultra time-resolved fluorescence resonance energy transfer (TR-FRET) technology from Perkin-Elmer. […] Each kinase reactions were incubated at room temperature for 1 hour and then stopped by the addition of 4 μL of stop solution (10 mM EDTA). […] After 60 minutes incubation at room temperature the LANCE signal was measured on an EnVision Multilabel Reader (Perkin-Elmer). […]
resultType: IC50 (nM)

>>> value("COCCNC1CCN(c2cc(Nc3ccnc(-c4cnn(S(=O)(=O)C5CC5)c4)n3)ncc2C#Cc2cnn(C)c2)CC1 [Example 132]")
46.4
>>> value("O=S(=O)(C1CC1)n1cc(-c2nccc(Nc3cc(NC4CCC(CO)CC4)c(C#CC4CCOC4C(F)(F)F)cn3)n2)cn1 (centres unmarked) [Example 416]")
165
>>> value("CC1(O)CCN(c2cc(Nc3ccnc(-c4cnn(S(=O)(=O)C5CC5)c4)n3)ncc2C#CC2CCO[C@H]2C(F)(F)F)CC1 (some centres unmarked) [Example 417]")
157
>>> value("CN(C)C[C@H]1CC[C@@H](Nc2cc(Nc3ccnc(-c4cnn(S(=O)(=O)C5CC5)c4)n3)ncc2C#Cc2cnn(C(F)F)c2)CC1 [Example 310]")
56.3
